Attribution: ChEMBL document CHEMBL4004822

biological target: NAD-dependent protein deacylase sirtuin-5, mitochondrial (Homo sapiens, UniProt Q9NXA8); assay: Inhibition of recombinant human N-terminal His-tagged SIRT5 (37 to 310 end residues) expressed in Escherichia coli using Ac-K(Succ)-AMC as substrate in presence of NAD+ by fluorescence assay
Sequence (Q9NXA8 whole entry): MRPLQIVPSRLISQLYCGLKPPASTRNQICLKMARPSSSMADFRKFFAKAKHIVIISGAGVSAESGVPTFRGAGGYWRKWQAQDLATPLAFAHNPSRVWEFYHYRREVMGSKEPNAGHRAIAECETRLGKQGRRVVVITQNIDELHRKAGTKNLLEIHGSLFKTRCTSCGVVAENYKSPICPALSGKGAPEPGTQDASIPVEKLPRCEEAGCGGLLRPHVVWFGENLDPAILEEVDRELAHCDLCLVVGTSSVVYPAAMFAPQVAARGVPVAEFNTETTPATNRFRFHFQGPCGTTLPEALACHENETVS
OBSERVABLE: IC50

# MOLECULE, MEASUREMENT_TARGET, OBSERVABLE, OBS_VALUE
records = [
    ("COc1ccc2ccccc2c1Cn1cnc2sc3c(c2c1=O)CCC(NCc1cccnc1)C3 (stereo unspecified)", "NAD-dependent protein deacylase sirtuin-5, mitochondrial (Homo sapiens, UniProt Q9NXA8)", "IC50", "> 100 µM"),
]

====

target: NAD-dependent protein deacetylase sirtuin-1 (Homo sapiens, UniProt Q96EB6); experiment: Inhibition of human SIRT1 (133 to 747 residues) using (Z-Lys(Acetyl)-AMC) as substrate after 4 hrs in presence of NAD+ by fluorescence assay
Sequence (Q96EB6 whole entry, the tested form may be a part): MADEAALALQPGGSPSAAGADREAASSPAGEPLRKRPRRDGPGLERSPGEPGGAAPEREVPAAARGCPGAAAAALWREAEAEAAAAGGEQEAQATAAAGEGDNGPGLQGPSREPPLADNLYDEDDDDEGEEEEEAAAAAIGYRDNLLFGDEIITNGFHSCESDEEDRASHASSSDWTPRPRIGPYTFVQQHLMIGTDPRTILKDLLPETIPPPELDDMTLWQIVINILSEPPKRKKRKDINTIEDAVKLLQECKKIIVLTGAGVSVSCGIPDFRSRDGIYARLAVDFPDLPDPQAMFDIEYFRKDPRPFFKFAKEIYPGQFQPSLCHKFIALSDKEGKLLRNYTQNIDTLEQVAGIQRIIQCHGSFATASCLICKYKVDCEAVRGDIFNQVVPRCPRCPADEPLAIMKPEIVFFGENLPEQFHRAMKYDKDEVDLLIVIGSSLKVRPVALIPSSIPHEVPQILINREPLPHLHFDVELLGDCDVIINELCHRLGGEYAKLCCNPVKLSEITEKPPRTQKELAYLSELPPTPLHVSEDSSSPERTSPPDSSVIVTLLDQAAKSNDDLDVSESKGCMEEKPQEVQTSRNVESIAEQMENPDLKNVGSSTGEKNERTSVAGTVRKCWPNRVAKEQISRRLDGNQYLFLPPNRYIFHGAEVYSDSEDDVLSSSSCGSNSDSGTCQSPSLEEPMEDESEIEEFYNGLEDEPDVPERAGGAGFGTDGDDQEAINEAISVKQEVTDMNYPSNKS
pIC50: −log10 of the molar value.

# INPUT_SMILES, pIC50
rows = [
    ("Cc1cc(C)nc(SCC(=O)Nc2ncc(Cc3cccc4ccccc34)s2)n1", "< 4.00"),
]

====

molecular target: NAD-dependent protein deacetylase sirtuin-2 (Homo sapiens); assay: Inhibition of recombinant human C-terminal His-tagged SIRT2 (50 to 389 end residues) expressed in Escherichia coli using p53 derived (379 to 382 residues) fluorogenic peptide substrate RHKK(Ac)-AMC preincubated for 10 mins followed by substrate addition in presence of NAD+ by fluorescence assay
Sequence (Q8IXJ6 whole entry, the tested form may be a part): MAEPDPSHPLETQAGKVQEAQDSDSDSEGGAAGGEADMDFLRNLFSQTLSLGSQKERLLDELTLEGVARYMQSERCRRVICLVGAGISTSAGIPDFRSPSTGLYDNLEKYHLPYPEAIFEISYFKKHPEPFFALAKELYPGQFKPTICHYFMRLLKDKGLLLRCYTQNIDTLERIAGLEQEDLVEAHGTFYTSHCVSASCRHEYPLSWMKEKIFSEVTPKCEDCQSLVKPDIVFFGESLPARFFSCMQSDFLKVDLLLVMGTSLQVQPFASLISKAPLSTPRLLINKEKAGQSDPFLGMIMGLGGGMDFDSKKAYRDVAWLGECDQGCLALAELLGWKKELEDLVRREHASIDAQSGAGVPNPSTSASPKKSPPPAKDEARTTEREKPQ
pIC50: −log10 of the molar value.
Collected pIC50 values appear next to each entry.

# COMPOUND, MEASUREMENT_TARGET, pIC50
records = [
    ("COc1ccc(CNC2CCc3c(sc4ncn(Cc5cccc6cccnc56)c(=O)c34)C2)cn1 (centres undefined)", "NAD-dependent protein deacetylase sirtuin-2 (Homo sapiens)", 5.58),
    ("COc1ccc2ccccc2c1Cn1cnc2sc3c(c2c1=O)CCC(NCC1CCCO1)C3 (centres undefined)", "NAD-dependent protein deacetylase sirtuin-2 (Homo sapiens)", 5.72),
    ("COc1ccc(CNC2CCc3c(sc4ncn(Cc5cccc6ccccc56)c(=O)c34)C2)cc1 (centres undefined)", "NAD-dependent protein deacetylase sirtuin-2 (Homo sapiens)", 5.49),
    ("O=c1c2c3c(sc2ncn1Cc1cccc2cccnc12)CC(NC1CCc2ccccc21)CC3 (centres undefined)", "NAD-dependent protein deacetylase sirtuin-2 (Homo sapiens)", 5.51),
    ("COc1ccc2ccccc2c1Cn1cnc2sc3c(c2c1=O)CCC(NCc1ccccn1)C3 (centres undefined)", "NAD-dependent protein deacetylase sirtuin-2 (Homo sapiens)", 5.51),
    ("COc1ccc(Cn2cnc3sc4c(c3c2=O)CCC(NC2CCOCC2)C4)c2ccccc12 (centres undefined)", "NAD-dependent protein deacetylase sirtuin-2 (Homo sapiens)", 5.30),
    ("N#Cc1ccc(CNC2CCc3c(sc4ncn(Cc5cccc6cccnc56)c(=O)c34)C2)cc1 (centres undefined)", "NAD-dependent protein deacetylase sirtuin-2 (Homo sapiens)", 6.41),
    ("COc1ccc2ccccc2c1Cn1cnc2sc(CCNC3CCOCC3)c(C)c2c1=O", "NAD-dependent protein deacetylase sirtuin-2 (Homo sapiens)", 5.09),
    ("O=c1c2c3c(sc2ncn1Cc1cccc2cccnc12)CC(NCc1ccccc1)CC3 (centres undefined)", "NAD-dependent protein deacetylase sirtuin-2 (Homo sapiens)", 5.60),
]
